- SUBJECT OF TEST: human TMEM16A (TMEM16Aabc variant) (Homo sapiens, UniProt Q5XXA6, DEL476-501, form not given)
- Sequence (Q5XXA6 with tags, fused parts or gaps DEL476-501): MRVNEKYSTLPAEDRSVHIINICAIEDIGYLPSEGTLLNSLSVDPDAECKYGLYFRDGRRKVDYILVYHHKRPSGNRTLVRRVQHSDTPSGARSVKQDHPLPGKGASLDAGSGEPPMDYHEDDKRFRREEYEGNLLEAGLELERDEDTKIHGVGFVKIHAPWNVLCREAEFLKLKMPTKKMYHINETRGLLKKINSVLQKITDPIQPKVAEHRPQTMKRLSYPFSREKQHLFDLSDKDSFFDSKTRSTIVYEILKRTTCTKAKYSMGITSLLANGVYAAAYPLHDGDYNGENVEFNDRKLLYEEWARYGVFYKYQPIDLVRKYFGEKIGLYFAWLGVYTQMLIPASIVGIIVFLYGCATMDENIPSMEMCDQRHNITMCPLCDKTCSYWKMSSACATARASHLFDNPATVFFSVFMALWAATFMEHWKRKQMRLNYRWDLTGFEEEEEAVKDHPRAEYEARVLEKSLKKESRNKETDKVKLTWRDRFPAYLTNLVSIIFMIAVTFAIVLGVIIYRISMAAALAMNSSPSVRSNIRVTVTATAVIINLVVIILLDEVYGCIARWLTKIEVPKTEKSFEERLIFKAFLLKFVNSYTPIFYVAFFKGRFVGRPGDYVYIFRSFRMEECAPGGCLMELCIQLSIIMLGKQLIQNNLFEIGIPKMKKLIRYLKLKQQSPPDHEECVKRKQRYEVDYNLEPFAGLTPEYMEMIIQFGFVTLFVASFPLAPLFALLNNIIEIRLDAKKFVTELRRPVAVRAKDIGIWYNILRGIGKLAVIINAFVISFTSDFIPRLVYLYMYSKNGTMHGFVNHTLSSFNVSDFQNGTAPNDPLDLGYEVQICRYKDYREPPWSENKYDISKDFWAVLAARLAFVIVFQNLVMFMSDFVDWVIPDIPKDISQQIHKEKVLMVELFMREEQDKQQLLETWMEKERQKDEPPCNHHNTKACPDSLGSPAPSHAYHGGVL
- ASSAY METHOD TEXT: Automated whole-cell patch clamp (Qpatch) TMEM16A potentiator assay in FRT cells stably expressing human TMEM16A
- Assay type: cell-based
- MEASUREMENT PARAMETERS: 3.33 μM solution of test compound; percentage increase of baseline TMEM16A current
VALUE TYPE: % Potentiation @ 3.33 μM Avg (%)
Please state the figure in %; there is no need to write the unit.

1) CC1(NC(=O)c2cccc(NC(=O)Cc3cc(Cl)ccc3O)c2)CCCCC1 : 256

Problem: Fill in % Potentiation @ 3.33 μM Avg for record `CC(C)(CO)NC(=O)c1cc(NC(=O)Cc2cc(Cl)ccc2O)ccn1`
Solution: 111

Problem: Fill in % Potentiation @ 3.33 μM Avg for record `CC(C)NC(=O)c1cc(NC(=O)Cc2cc(Cl)ccc2O)ccn1`
Solution: 234

Problem: Fill in % Potentiation @ 3.33 μM Avg for record `Cc1nc(-c2ccccc2)sc1C(=O)Nc1ccnc(C(=O)NC(C)(C)C#N)c1`
Solution: 20

###

# maps each entry to its % Potentiation @ 3.33 μM Avg
- SUBJECT OF TEST: human TMEM16A (TMEM16Aabc variant) (Homo sapiens, UniProt Q5XXA6, DEL476-501, form not given)
- ASSAY METHOD TEXT: Automated whole-cell patch clamp (Qpatch) TMEM16A potentiator assay in FRT cells stably expressing human TMEM16A
- Format: cell-based
- MEASUREMENT PARAMETERS: 3.33 μM solution of test compound; percentage increase of baseline TMEM16A current
Please state the figure in %; there is no need to write the unit.

Reference set (6 entries):
1) CC(C)(C)NC(=O)c1cccc(NC(=O)Cc2c(O)cccc2O)c1 : 53
2) Cc1ccc(CC(=O)Nc2ccnc(C(=O)NC(C)(C)C)c2)cc1 : 89
3) CC(C)(C)NC(=O)c1ccc(F)c(NC(=O)Cc2cc(Cl)ccc2O)c1 : 149
4) CC(C)(C#N)NC(=O)c1cc(NC(=O)c2cccc3ncsc23)ccn1 : 93
5) COc1ccc(Cl)c(CC(=O)Nc2ccnc(C(=O)NC3(C#N)CC3)c2)c1 : 68
6) O=C(Cc1ccccc1Cl)Nc1ccnc(C(=O)NC23CC(F)(C2)C3)c1 : 100

Problem: Fill in % Potentiation @ 3.33 μM Avg for record `COc1ccc(F)c(F)c1CC(=O)Nc1cccc(C(=O)NC(C)(C)C)c1`
Solution: 55

Problem: Fill in % Potentiation @ 3.33 μM Avg for record `CC(C)(C)NC(=O)c1cccc(NC(=O)Cc2cccc(O)c2O)c1`
Solution: 60

Problem: Fill in % Potentiation @ 3.33 μM Avg for record `CC(C)(C)NC(=O)c1cccc(NC(=O)Cc2cc(C(F)(F)F)ccc2O)c1`
Solution: 172

###

- SUBJECT OF TEST: human TMEM16A (TMEM16Aabc variant) (Homo sapiens, UniProt Q5XXA6, DEL476-501, form not given)
- ASSAY METHOD TEXT: Automated whole-cell patch clamp (Qpatch) TMEM16A potentiator assay in FRT cells stably expressing human TMEM16A
- Format: cell-based
- MEASUREMENT PARAMETERS: 3.33 μM solution of test compound; percentage increase of baseline TMEM16A current
# maps each entry to its % Potentiation @ 3.33 μM Avg
Please state the figure in %; there is no need to write the unit.

1) O=C(Cc1cc(Cl)ccc1O)Nc1ccnc(C(=O)NC2CCCCC2)c1 [Example 1.10] : 200

Problem: Fill in % Potentiation @ 3.33 μM Avg for record O=C(Cc1cc(Cl)ccc1O)Nc1cccc(C(=O)NC2CCCCC2)c1 [Example 7.3]
Solution: 125

Problem: Fill in % Potentiation @ 3.33 μM Avg for record O=C(Cc1cc(Cl)ccc1O)Nc1ccnc(C(=O)N[C@H]2CCCC[C@@H]2O)c1 (single isomer, unassigned) [Example 31.3a]
Solution: 238

Problem: Fill in % Potentiation @ 3.33 μM Avg for record C#CC(C)(C)NC(=O)c1cccc(NC(=O)Cc2cc(F)ccc2O)c1 [Example 35.21]
Solution: 200

###

# maps each entry to its % Potentiation @ 3.33 μM Avg
- SUBJECT OF TEST: human TMEM16A (TMEM16Aabc variant) (Homo sapiens, UniProt Q5XXA6, DEL476-501, form not given)
- ASSAY METHOD TEXT: Automated whole-cell patch clamp (Qpatch) TMEM16A potentiator assay in FRT cells stably expressing human TMEM16A
- Type: cell-based
- MEASUREMENT PARAMETERS: 3.33 μM solution of test compound; percentage increase of baseline TMEM16A current
Please state the figure in %; there is no need to write the unit.

1. CC(C)(C)NC(=O)c1cc(NC(=O)CC2C3CC4CC(C3)CC2C4)ccn1 (centres unmarked) [Example 5.1] : 140

Problem: Fill in % Potentiation @ 3.33 μM Avg for record CC(C)(C)NC(=O)c1cc(NC(=O)Cc2ccc(Cl)c(Cl)c2)ccn1 [Example 5.8]
Solution: 116

Problem: Fill in % Potentiation @ 3.33 μM Avg for record Nc1cccc(CNC(=O)c2cc(NC(=O)Cc3cc(Cl)ccc3O)ccn2)n1 [Example 32]
Solution: 171

Problem: Fill in % Potentiation @ 3.33 μM Avg for record CC(C)(C)NC(=O)c1cc(NC(=O)Cc2cc(-c3ccccc3)ccc2O)ccn1 [Example 26]
Solution: 108

Problem: Fill in % Potentiation @ 3.33 μM Avg for record C#CC1(NC(=O)c2cc(NC(=O)Cc3cc(Cl)ccc3O)ccn2)CCOCC1 [Example 31.4]
Solution: 186

###

- SUBJECT OF TEST: human TMEM16A (TMEM16Aabc variant) (Homo sapiens, UniProt Q5XXA6, DEL476-501, form not given)
- ASSAY METHOD TEXT: Automated whole-cell patch clamp (Qpatch) TMEM16A potentiator assay in FRT cells stably expressing human TMEM16A
- Assay type: cell-based
- MEASUREMENT PARAMETERS: calculated EC50, Qpatch TMEM16A current at +70 mV
VALUE TYPE: pEC50
// scale note: pEC50 = -log10(conc_M); give the bare number

Reference set (6 entries):
1. N#CC1(NC(=O)c2cc(NC(=O)Cc3ccccc3Cl)ccn2)CCC1 [Example 30] : 5.91
2. CC1(NC(=O)c2cc(NC(=O)Cc3ccccc3Cl)ccn2)CC1 [Example 30.8] : 6.15
3. O=C(Cc1cc(Cl)ccc1O)Nc1ccnc(C(=O)N[C@@]2(CO)CCOC2)c1 (single isomer, unassigned) [Example 35a] : 7.00
4. COc1ccc(O)c(CC(=O)Nc2ccnc(C(=O)NC(C)(C)C)c2)c1 [Example 3.8b] : 6.52
5. CC(C)C(C)(C#N)NC(=O)c1cc(NC(=O)Cc2cc(Cl)ccc2O)ccn1 (centres unmarked) [Example 37] : 6.92
6. CC(C)(C)NC(=O)c1cc(NC(=O)Cc2cc(Cl)ccc2O)ccc1F [Example 17] : 5.83

Problem: Fill in pEC50 for record CC(C)(NC(=O)c1cc(NC(=O)Cc2cc(Cl)ccc2O)ccn1)c1ccccn1 [Example 35.9]
Solution: 6.27

Problem: Fill in pEC50 for record CC1(NC(=O)c2cc(NC(=O)Cc3cc(Cl)ccc3O)ccn2)CCC1 [Example 1.6]
Solution: 7.22

###

- SUBJECT OF TEST: human TMEM16A (TMEM16Aabc variant) (Homo sapiens, UniProt Q5XXA6, DEL476-501, form not given)
- ASSAY METHOD TEXT: Automated whole-cell patch clamp (Qpatch) TMEM16A potentiator assay in FRT cells stably expressing human TMEM16A
- MEASUREMENT PARAMETERS: calculated EC50, Qpatch TMEM16A current at +70 mV
Threshold 200 nM: EC50 strictly smaller gives True, otherwise False.

1) CC#CC(C)(C)NC(=O)c1cc(NC(=O)Cc2cc(Cl)ccc2O)ccn1 [Example 73.1] : False
2) C#CC(C)(C)NC(=O)c1cc(NC(=O)Cc2ccccc2C(F)(F)F)ccn1 [Example 5.38] : True
3) COC(=O)CC1(NC(=O)c2cc(NC(=O)Cc3cc(Cl)ccc3O)ccn2)CCOCC1 [Example 47.1] : False
4) CC(C)(C)NC(=O)c1cccc(NC(=O)Cc2ccc(C(F)(F)F)cc2O)c1 [Example 2.19] : False
5) Cc1cccc(CC(=O)Nc2ccnc(C(=O)NC(C)(C)C)c2)c1 [Example 5.14] : False

Problem: Does the reported EC50 of CC(C)(C)NC(=O)c1cc(NC(=O)Cc2ccccc2O)ccn1 [Example 1] stay below 200 nM?
Solution: False

Problem: Does the reported EC50 of CC1(NC(=O)c2cccc(NC(=O)Cc3cc(F)ccc3O)c2)CCCCC1 [Example 35.20] stay below 200 nM?
Solution: False
